TARGET_OR_TEST_SYSTEM: PTP1B (Homo sapiens, UniProt P18031)
Construct: purchased Enzo Life Sciences
Sequence (P18031 1-435): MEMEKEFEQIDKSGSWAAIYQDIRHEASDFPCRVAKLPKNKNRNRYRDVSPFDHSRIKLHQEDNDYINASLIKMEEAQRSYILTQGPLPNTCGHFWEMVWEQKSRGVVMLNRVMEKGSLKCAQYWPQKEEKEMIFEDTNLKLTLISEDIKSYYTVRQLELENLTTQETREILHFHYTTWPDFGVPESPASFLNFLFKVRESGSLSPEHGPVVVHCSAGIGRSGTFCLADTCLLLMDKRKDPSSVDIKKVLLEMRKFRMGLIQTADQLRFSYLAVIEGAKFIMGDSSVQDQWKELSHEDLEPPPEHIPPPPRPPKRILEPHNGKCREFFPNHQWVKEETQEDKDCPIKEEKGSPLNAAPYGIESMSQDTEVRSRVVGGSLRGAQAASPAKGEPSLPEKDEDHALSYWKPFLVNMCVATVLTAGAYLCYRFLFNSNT
PROTOCOL_DETAILS: In vitro assay for PTP1B inhibitory activity (pNPP)
Type: biochemical
CONDITION: mean ± SD of triplicate experiments; read-out: PTP1B IC50
READOUT_TYPE: pIC50
Reminder that pIC50 is minus the log10 of a molar concentration.

>>> value_measured("CC(C)=CCc1c(-c2ccc(O)cc2O)oc2c(C3C=C(C)CC(c4ccc(O)cc4O)C3C(=O)c3ccc(O)cc3O)c(O)cc(O)c2c1=O (centres unmarked)")
4.79

Record summary for CC(C)=CCc1c(-c2ccc(O)cc2O)oc2c(CC=C(C)C)c(O)cc(O)c2c1=O : reported pIC50 = 4.38

Record summary for O=C1c2c(O)cc(O)cc2O[C@H](c2ccc(O)cc2O)[C@H]1O [Dihydromorin (3), Dihydromorin] : reported pIC50 = 3.74

Record summary for Oc1cc(O)cc(-c2cc3ccc(O)cc3o2)c1 : reported pIC50 = 3.48

* * *

Tested on: AGE formation
PROTOCOL_DETAILS: In vitro assay for inhibition of AGE formation (BSA-fructose/glucose fluorescence)
Type: biochemical
CONDITION: mean ± SD of triplicate experiments; result on day 4; read-out: AGEs IC50
READOUT_TYPE: IC50

>>> value_measured("Oc1cc(O)cc(/C=C/c2ccc(O)cc2O)c1 [Oxyresveratrol (5), Oxyresveratrol]")
"7.56 µM"
>>> value_measured("O=C1c2c(O)cc(O)cc2O[C@H](c2ccc(O)cc2O)[C@H]1O [Dihydromorin (3), Dihydromorin]")
"118 µM"

Record summary for CC(C)=CCc1c(-c2ccc(O)cc2O)oc2c(C3C=C(C)CC(c4ccc(O)cc4O)C3C(=O)c3ccc(O)cc3O)c(O)cc(O)c2c1=O (stereo not shown) [Kuwanon G (7), Kuwanon G] : reported IC50 = 69.1 µM

Record summary for O=c1cc(-c2ccc(O)cc2O)oc2cc(O)cc(O)c12 [Norartocarpetin (6), Norartocarpetin] : reported IC50 = 77.3 µM

Record summary for Cl.N=C(N)NN [Aminoguanidine, Aminoguanidine hydrochloride, reference compound] : reported IC50 = 890 µM

Record summary for Oc1cc(O)cc(-c2cc3ccc(O)cc3o2)c1 [Moracin M (2), Moracin M] : reported IC50 = 2.1 µM

Record summary for CC(C)=CCc1c(-c2ccc(O)cc2O)oc2c(CC=C(C)C)c(O)cc(O)c2c1=O [Kuwanon C (1), Kuwanon C] : reported IC50 = > 100 µM
